Target: human full-length glucocorticoid receptor (Homo sapiens, UniProt P04150)
Construct: recombinantly expressed human full-length glucocorticoid receptor; purchased PanVera Co., Madison, Wis; P2816
Test: Glucocorticoid Receptor Binding Assay (II), fluorescence polarization competitor kit (Fluormone GS1)
Details: cell lysate with recombinant human full-length GR
hey, just use label 1 if measured Ki is less than 20 nM, otherwise label 0

>>> print(df.to_string())
                                   compound  assigned_category
0  CC(C)(C(c1ccccc1)c1ccc2c(cnn2-c2ccc(F)cc2)c1)C(O)C1CC1 (centres unmarked)            label 0
1  CC(C)(CNS(=O)(=O)CC(F)(F)F)C(c1ccccc1)c1ccc2[nH]ncc2c1 (stereo in doubt) [(R)-83]            label 0
2  Cn1ncc2cc([C@H](c3ccccc3)C(C)(C)CNS(=O)(=O)CC(F)(F)F)ccc21            label 0
3  CC(C)(C)NC(=O)NCC(C)(C)[C@@H](c1ccccc1)c1ccc2c(cnn2-c2ccc(F)cc2)c1            label 1
4  CC(C)n1ncc2cc([C@H](c3ccccc3)C(C)(C)CNC(=O)CC(F)(F)F)ccc21            label 1
5  CCS(=O)(=O)NCC(C)(C)[C@@H](c1ccccc1)c1ccc2c(cnn2-c2ccc(F)cc2)c1            label 1
6  CC(C)CC(c1ccc2c(cnn2-c2ccc(F)cc2)c1)C(C)(C)CNC(N)=O (centres unmarked)            label 1
7  CC(C)(C(=O)c1cccs1)C(c1ccccc1)c1ccc2c(cnn2-c2ccc(F)cc2)c1 (centres unmarked)            label 1

---

Biological target: human glucocorticoid receptor (Homo sapiens, UniProt P04150)
Construct: purified human recombinant full-length glucocorticoid receptor (2 nM); purchased Invitrogen Part # 2893
Sequence (P04150 1-777): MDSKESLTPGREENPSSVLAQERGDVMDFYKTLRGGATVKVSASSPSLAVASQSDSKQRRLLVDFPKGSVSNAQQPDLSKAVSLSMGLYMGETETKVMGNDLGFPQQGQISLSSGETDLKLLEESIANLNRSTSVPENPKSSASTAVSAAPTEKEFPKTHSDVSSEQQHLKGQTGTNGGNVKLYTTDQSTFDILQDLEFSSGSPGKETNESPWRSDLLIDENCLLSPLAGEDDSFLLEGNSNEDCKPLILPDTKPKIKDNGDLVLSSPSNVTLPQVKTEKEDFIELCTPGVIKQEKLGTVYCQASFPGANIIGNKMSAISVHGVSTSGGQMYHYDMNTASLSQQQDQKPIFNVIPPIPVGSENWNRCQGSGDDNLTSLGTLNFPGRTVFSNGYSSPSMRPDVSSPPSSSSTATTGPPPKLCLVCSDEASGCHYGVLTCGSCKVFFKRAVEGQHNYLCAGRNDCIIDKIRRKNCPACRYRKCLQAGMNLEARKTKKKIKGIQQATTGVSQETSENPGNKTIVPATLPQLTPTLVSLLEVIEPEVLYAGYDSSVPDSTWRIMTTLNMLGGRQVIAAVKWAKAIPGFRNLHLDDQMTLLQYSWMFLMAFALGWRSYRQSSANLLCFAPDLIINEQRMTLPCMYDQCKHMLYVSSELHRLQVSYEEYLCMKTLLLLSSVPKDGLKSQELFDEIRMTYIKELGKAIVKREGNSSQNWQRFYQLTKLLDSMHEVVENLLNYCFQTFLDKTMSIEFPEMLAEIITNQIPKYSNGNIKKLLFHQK
Assay: Glucocorticoid Receptor Binding Assay (I), fluorescence polarization competitor kit (Fluormone GS Red)
Conditions: purified human recombinant full-length GR
Procedure: In order to assess the affinity of test compounds for the human glucocorticoid receptor, a commercially available kit was used (Glucocorticoid Receptor Competitor Assay Kit, Invitrogen Part # 2893). […] After two hour incubation at room temperature in the dark, the fluorescence polarization (FP) of the samples was measured. […] Test compounds were analyzed in the concentration range from 8.5E-05 μM to 5 μM.
assay metric: log10 of Ki (log10 of the value in nM)

                                    molecule                                       tgt  assay_metric  measurement
 0  CC(C)CC(c1ccc2c(cnn2-c2ccc(F)cc2)c1)C(C)(C)CNC(=O)OCC(C)(C)C (stereo not drawn) [Example 62]  human glucocorticoid receptor (Homo sapiens, UniProt P04150)   log10 of Ki         1.04
 1  CC(C)CC(c1ccc2c(cnn2-c2ccc(F)cc2)c1)C(C)(C)CNC(=O)NC(CO)CO (stereo not drawn) [Example 46]  human glucocorticoid receptor (Homo sapiens, UniProt P04150)   log10 of Ki         0.18
 2  CC(C)CC(c1ccc2c(cnn2-c2ccc(F)cc2)c1)C(C)(C)CNC(=O)NC(CO)Cc1ccc(Cl)cc1 (stereo not drawn) [Example 80]  human glucocorticoid receptor (Homo sapiens, UniProt P04150)   log10 of Ki         0.48
 3  CC(CNC(=O)NC(C)(C)C)C(c1ccccc1)c1ccc2c(cnn2-c2ccc(F)cc2)c1 (single isomer, unassigned) [Example 97C]  human glucocorticoid receptor (Homo sapiens, UniProt P04150)   log10 of Ki         0.54
 4  C#CC(C)(C)NC(=O)NCC(C)(C)C(CC(C)C)c1ccc2c(cnn2-c2ccc(F)cc2)c1 (stereo not drawn) [Example 72]  human glucocorticoid receptor (Homo sapiens, UniProt P04150)   log10 of Ki         1.74
 5  CC(C)(C(c1ccccc1)c1ccc2c(cnn2-c2ccc(F)cc2)c1)C(O)C1CC1 (stereo not drawn) [Example 122]  human glucocorticoid receptor (Homo sapiens, UniProt P04150)   log10 of Ki         1.57
 6  CCCC(c1ccc2c(cnn2-c2ccc(F)cc2)c1)C(C)(C)CNC(=O)NC(C)(C)C (stereo not drawn) [Example 104]  human glucocorticoid receptor (Homo sapiens, UniProt P04150)   log10 of Ki         0.32
 7  CC(C)CC(c1ccc2c(cnn2-c2ccc(F)cc2)c1)C(C)(C)CNC(=O)NC1(CO)CCCC1 (stereo not drawn) [Example 42]  human glucocorticoid receptor (Homo sapiens, UniProt P04150)   log10 of Ki         0.38
 8  CC(C)CC(c1ccc2c(cnn2-c2ccc(F)cc2)c1)C(C)(C)CNC(=O)NC(C)(C)CN (stereo not drawn) [Example 41]  human glucocorticoid receptor (Homo sapiens, UniProt P04150)   log10 of Ki         0.91
 9  CC(C)(C)NC(=O)NCC(C)(C)C(c1ccc2c(cnn2-c2ccc(F)cc2)c1)C1CCCC1 (stereo not drawn) [Example 106]  human glucocorticoid receptor (Homo sapiens, UniProt P04150)   log10 of Ki         0.52
10  CC(CNS(=O)(=O)CC(F)(F)F)C(c1ccccc1)c1ccc2c(cnn2-c2ccc(F)cc2)c1 (single isomer, unassigned) [Example 91A]  human glucocorticoid receptor (Homo sapiens, UniProt P04150)   log10 of Ki         0.32
11  CC(C)CC(c1ccc2c(cnn2-c2ccc(F)cc2)c1)C(C)(C)CNC(=O)N[C@H](C)C(C)(C)C (stereo partly drawn) [Example 44]  human glucocorticoid receptor (Homo sapiens, UniProt P04150)   log10 of Ki         0.43
12  CC(C)(C)NC(=O)NCC(C)(C)C(CCCO)c1ccc2c(cnn2-c2ccc(F)cc2)c1 (stereo not drawn) [Example 107]  human glucocorticoid receptor (Homo sapiens, UniProt P04150)   log10 of Ki         0.49
13  CC(C)(CNC(=O)NCC(F)(F)F)[C@@H](c1ccccc1)c1ccc2c(cnn2-c2ccc(F)cc2)c1 [Example 8]  human glucocorticoid receptor (Homo sapiens, UniProt P04150)   log10 of Ki         1.23
14  CC(CNC(=O)NC(C)(C)C)C(c1ccccc1)c1ccc2c(cnn2-c2ccc(F)cc2)c1 (single isomer, unassigned) [Example 97B]  human glucocorticoid receptor (Homo sapiens, UniProt P04150)   log10 of Ki         1.63
